Data provenance is paper PMC8624485.

molecular target: RXRα (Homo sapiens); construct: expressed in transfected cells; host or cells: UAS-GFP x KMT2A-MLLT3 cells (retroviral transduction); assay: UAS/Gal4 GFP reporter assay of RXRα activation in UAS-GFP x KMT2A-MLLT3 cells; assay type: cell-based
pEC50: −log10 of the molar value.
assayMetric: pEC50

# compound, systemUnderTest, quantitativeReadout
rows = [
    ("C=C(c1ccc(C(=O)O)cc1)c1ccc2c(c1)C(C)(C)CCC2(C)C [Compound 27, reference compound]", "RXRα (Homo sapiens)", 6.77),
]

====

Target: RXR-LXR heterodimer (LXR/LXRE) (Homo sapiens)
Construct: expressed in transfected cells; host or cells: HEK293 cells
Sequence (P19793 1-462): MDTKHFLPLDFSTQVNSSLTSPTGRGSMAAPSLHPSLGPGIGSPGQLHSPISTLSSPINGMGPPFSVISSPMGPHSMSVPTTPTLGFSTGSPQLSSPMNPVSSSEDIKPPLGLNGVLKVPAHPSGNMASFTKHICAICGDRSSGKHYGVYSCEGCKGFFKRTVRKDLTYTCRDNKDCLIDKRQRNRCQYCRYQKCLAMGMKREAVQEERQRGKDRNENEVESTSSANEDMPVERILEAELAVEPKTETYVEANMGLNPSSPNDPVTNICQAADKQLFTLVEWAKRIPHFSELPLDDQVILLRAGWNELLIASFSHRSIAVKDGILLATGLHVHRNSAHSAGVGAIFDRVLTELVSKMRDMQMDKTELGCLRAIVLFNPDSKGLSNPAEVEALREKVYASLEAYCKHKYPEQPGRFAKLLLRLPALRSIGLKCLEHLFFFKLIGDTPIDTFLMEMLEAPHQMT
Sequence (Q13133 1-447 partner): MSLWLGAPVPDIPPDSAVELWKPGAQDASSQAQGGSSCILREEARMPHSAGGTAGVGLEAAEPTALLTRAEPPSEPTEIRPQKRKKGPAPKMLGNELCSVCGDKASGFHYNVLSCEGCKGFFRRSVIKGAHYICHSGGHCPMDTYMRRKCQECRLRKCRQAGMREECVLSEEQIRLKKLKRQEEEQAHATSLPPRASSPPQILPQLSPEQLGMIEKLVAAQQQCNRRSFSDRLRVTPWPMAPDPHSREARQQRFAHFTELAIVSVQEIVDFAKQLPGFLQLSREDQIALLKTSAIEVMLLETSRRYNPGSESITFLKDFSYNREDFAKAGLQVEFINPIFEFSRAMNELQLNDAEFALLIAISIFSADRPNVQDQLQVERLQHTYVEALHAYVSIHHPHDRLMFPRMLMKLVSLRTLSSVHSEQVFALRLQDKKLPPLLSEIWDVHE
Experiment: LXRE-luciferase transactivation assay in HEK293 cells
Type: cell-based
Details: LXRE Heterodimer Specificity: LXRE:RXRE activity ratio, compound 1 set to 1.0

# compound, systemUnderTest, LHS Score (vs. Bex)
records = [
    ("Cc1cc2c(cc1C1(c3ncc(C(=O)O)cn3)CC1)C(C)(C)CC2(C)C", "RXR-LXR heterodimer (LXR/LXRE) (Homo sapiens)", 0.38),
    ("C=C(c1ccc(C(=O)O)c(O)c1)c1ccc2c(c1)C(C)(C)CCC2(C)C [Compound 37b]", "RXR-LXR heterodimer (LXR/LXRE) (Homo sapiens)", 0.91),
    ("C=C(c1ccc(C(=O)O)c(O)c1)c1cc2c(cc1C)C(C)(C)CCC2(C)C [Compound 37a]", "RXR-LXR heterodimer (LXR/LXRE) (Homo sapiens)", 0.45),
    ("C=C(c1ccc(C(=O)O)cc1)c1cc2c(cc1C)C(C)(C)CC2(C)C [Compound 26, reference compound]", "RXR-LXR heterodimer (LXR/LXRE) (Homo sapiens)", 0.66),
    ("C=C(c1ccc2c(c1)C(C)(C)CCC2(C)C)c1ncc(C(=O)O)cn1", "RXR-LXR heterodimer (LXR/LXRE) (Homo sapiens)", 0.70),
    ("C=C(c1ncc(C(=O)O)cn1)c1cc2c(cc1C)C(C)(C)CC2(C)C", "RXR-LXR heterodimer (LXR/LXRE) (Homo sapiens)", 0.38),
    ("C=C(c1ccc(C(=O)O)cc1)c1ccc2c(c1)C(C)(C)CCC2(C)C [Compound 27, reference compound]", "RXR-LXR heterodimer (LXR/LXRE) (Homo sapiens)", 1.0),
]

====

biological target: RXR-LXR heterodimer (LXR/LXRE) (Homo sapiens, UniProt P19793); construct: expressed in transfected cells; host or cells: HEK293 cells; assay: LXRE-luciferase transactivation assay in HEK293 cells; type: cell-based; settings: 100 nM compound alone, HEK293, bexarotene (1) set to 100%

# compound, systemUnderTest, LXRE Activity (% of Bex)
measured = [
    ("CCN(c1ccc(OCC(C)C)c(C(C)C)c1)c1ncc(C(=O)O)cn1 [Compound 28]", "RXR-LXR heterodimer (LXR/LXRE) (Homo sapiens, UniProt P19793)", "77.7 % of Bex"),
    ("CCN(c1ccc(C(=O)O)c(F)c1)c1ccc(OCC(C)C)c(C(C)C)c1 [Compound 29]", "RXR-LXR heterodimer (LXR/LXRE) (Homo sapiens, UniProt P19793)", "61.7 % of Bex"),
    ("C=C(c1ccc(C(=O)O)c(O)c1)c1ccc2c(c1)C(C)(C)CCC2(C)C [Compound 37b]", "RXR-LXR heterodimer (LXR/LXRE) (Homo sapiens, UniProt P19793)", "69.1 % of Bex"),
    ("CCN(c1ccc(C(=O)O)cc1)c1ccc(OCC(C)C)c(C(C)C)c1 [Compound 30]", "RXR-LXR heterodimer (LXR/LXRE) (Homo sapiens, UniProt P19793)", "60.2 % of Bex"),
    ("C=C(c1ccc(C(=O)O)c(F)c1)c1ccc2c(c1)C(C)(C)CCC2(C)C [Compound 36]", "RXR-LXR heterodimer (LXR/LXRE) (Homo sapiens, UniProt P19793)", "85.2 % of Bex"),
]

====

# maps each entry to its LXRE Activity (% of Bex)
Target: RXR-LXR heterodimer (LXR/LXRE) (Homo sapiens)
Construct: expressed in transfected cells; host or cells: HEK293 cells
Sequence (P19793 1-462): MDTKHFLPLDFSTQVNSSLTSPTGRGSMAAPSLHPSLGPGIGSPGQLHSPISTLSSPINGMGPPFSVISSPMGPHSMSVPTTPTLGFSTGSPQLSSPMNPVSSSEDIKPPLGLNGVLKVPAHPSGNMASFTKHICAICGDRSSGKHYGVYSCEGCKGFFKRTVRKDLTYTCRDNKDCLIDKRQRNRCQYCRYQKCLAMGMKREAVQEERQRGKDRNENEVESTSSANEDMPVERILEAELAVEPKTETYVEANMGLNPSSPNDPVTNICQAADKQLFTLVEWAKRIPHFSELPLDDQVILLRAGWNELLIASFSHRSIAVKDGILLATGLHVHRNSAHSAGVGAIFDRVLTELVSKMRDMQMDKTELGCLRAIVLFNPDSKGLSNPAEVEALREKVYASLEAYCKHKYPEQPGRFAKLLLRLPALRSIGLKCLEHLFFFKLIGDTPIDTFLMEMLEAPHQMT
Sequence (Q13133 1-447 partner): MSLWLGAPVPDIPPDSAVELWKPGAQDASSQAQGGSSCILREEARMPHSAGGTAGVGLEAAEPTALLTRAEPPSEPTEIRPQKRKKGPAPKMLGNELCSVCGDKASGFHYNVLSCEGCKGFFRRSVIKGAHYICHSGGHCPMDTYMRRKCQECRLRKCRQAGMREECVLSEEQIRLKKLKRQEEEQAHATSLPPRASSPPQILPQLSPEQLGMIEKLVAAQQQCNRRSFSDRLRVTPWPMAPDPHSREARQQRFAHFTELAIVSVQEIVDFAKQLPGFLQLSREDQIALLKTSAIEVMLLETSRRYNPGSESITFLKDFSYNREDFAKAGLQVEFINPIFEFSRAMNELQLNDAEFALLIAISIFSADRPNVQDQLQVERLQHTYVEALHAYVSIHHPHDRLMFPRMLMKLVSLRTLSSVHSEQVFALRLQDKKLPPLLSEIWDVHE
Experiment: LXRE-luciferase transactivation assay in HEK293 cells
Format: cell-based
Details: 100 nM compound alone, HEK293, bexarotene (1) set to 100%

# molecule, LXRE Activity (% of Bex)
data = [
    ("C=C(c1ccc(C(=O)O)cc1)c1cc2c(cc1C)C(C)(C)CC2(C)C [Compound 26, reference compound]", "94.5 % of Bex"),
    ("CC(C)COc1ccc(-n2nnc3cc(C(=O)O)ccc32)cc1C(C)C [Compound 31]", "64.5 % of Bex"),
    ("C=C(c1ccc(C(=O)O)c(O)c1)c1cc2c(cc1C)C(C)(C)CCC2(C)C [Compound 37a]", "91.1 % of Bex"),
    ("CCN(c1ccc(OCC(C)C)c(C(C)C)c1)c1ccc(C(=O)O)cn1 [Compound 25, reference compound]", "72.4 % of Bex"),
    ("CC1(C)CCC(C)(C)c2cc(C3(c4ncc(C(=O)O)cn4)CC3)ccc21 [Compound 35]", "60.6 % of Bex"),
]
